Some compounds, each annotated with its measured log10 of IC50.
Test system: Phosphorylation of ERK1/2 in MIA PaCa-2 cells
assay details: Phospho-ERK1/2 MSD Assay
Assay type: cell-based
particulars: Homo sapiens, MIA PaCa-2, read-out: pERK IC50 (4 h); 4 h compound treatment; MiaPaCa-2 cells
endpoint: log10 of IC50 (log10 of the value in µM)

> print(dat)
                               record.smiles                               test.target       endpoint  value
 1  C=CC(=O)N1CC(NC(=O)Cn2c(C)c(-c3ccccc3N(C)C)c3cc(Cl)ccc32)C1  Phosphorylation of ERK1/2 in MIA PaCa-2 cells  log10 of IC50   1.26
 2  C=CC(=O)N1CC(NC(=O)Cn2cc(Br)c3cc(Cl)cc(C)c32)C1  Phosphorylation of ERK1/2 in MIA PaCa-2 cells  log10 of IC50   1.21
 3  C=CC(=O)N1CC(NC(=O)Cn2c(C)c(-c3cccc4ncccc34)c3cc(Cl)ccc32)C1  Phosphorylation of ERK1/2 in MIA PaCa-2 cells  log10 of IC50   1.70
 4  C=CC(=O)N1CC(NC(=O)Cn2cc(I)c3cc(Br)c(C)cc32)C1  Phosphorylation of ERK1/2 in MIA PaCa-2 cells  log10 of IC50   1.22
 5  C=CC(=O)N1CC(NC(=O)Cn2cc(I)c3cc(Br)cc(C)c32)C1  Phosphorylation of ERK1/2 in MIA PaCa-2 cells  log10 of IC50   1.71
 6  C=CC(=O)N1CC(NC(=O)Cn2cc(-c3cccnc3OC(C)C)c3cc(Br)ccc32)C1  Phosphorylation of ERK1/2 in MIA PaCa-2 cells  log10 of IC50   1.34
 7  C=CC(=O)N1CC(NC(=O)Cn2cc(C3CC3)c3cc(Br)ccc32)C1  Phosphorylation of ERK1/2 in MIA PaCa-2 cells  log10 of IC50   1.58
 8  C=CC(=O)N1CC(NC(=O)Cn2c(C)c(-c3ccccc3C3CC3)c3cc(Cl)ccc32)C1  Phosphorylation of ERK1/2 in MIA PaCa-2 cells  log10 of IC50   0.52
 9  C=CC(=O)N1CC(NC(=O)Cn2c(C)c(-c3ccccc3CC)c3cc(Cl)ccc32)C1  Phosphorylation of ERK1/2 in MIA PaCa-2 cells  log10 of IC50   0.77
10  C=CC(=O)N1CC(NC(=O)Cn2c(C)c(-c3cccc4nc(C)ccc34)c3cc(Cl)ccc32)C1  Phosphorylation of ERK1/2 in MIA PaCa-2 cells  log10 of IC50   1.31
11  C=CC(=O)N1CC(NC(=O)Cn2c3c(c4cc(Br)ccc42)CCN(C(=O)OC(C)(C)C)C3)C1  Phosphorylation of ERK1/2 in MIA PaCa-2 cells  log10 of IC50   1.29
12  C=CC(=O)N1CC(NC(=O)Cn2c3ccc(Br)cc3c3ccc(Oc4ccccn4)nc32)C1  Phosphorylation of ERK1/2 in MIA PaCa-2 cells  log10 of IC50   0.83
13  C=CC(=O)N1CC(N(C)C(=O)Cn2cc(I)c3cc(Br)ccc32)C1  Phosphorylation of ERK1/2 in MIA PaCa-2 cells  log10 of IC50   0.58
14  C=CC(=O)N1CC(NC(=O)Cn2c(C)c(-c3cncnc3C(C)C)c3cc(Cl)ccc32)C1  Phosphorylation of ERK1/2 in MIA PaCa-2 cells  log10 of IC50   0.17
15  C=CC(=O)N1CC(NC(=O)Cn2cc(-c3ccccc3-c3ccccc3)c3cc(Cl)ccc32)C1  Phosphorylation of ERK1/2 in MIA PaCa-2 cells  log10 of IC50   1.41
16  C=CC(=O)N1CC(NC(=O)Cn2c(C)c(-c3ccccc3N3CCCC3)c3cc(Cl)ccc32)C1  Phosphorylation of ERK1/2 in MIA PaCa-2 cells  log10 of IC50   0.74
17  C=CC(=O)N1CC(NC(=O)Cn2cc(I)c3ccc(Br)cc32)C1  Phosphorylation of ERK1/2 in MIA PaCa-2 cells  log10 of IC50   1.00
